target_entity: UBE2D3
experimental_details: reporter assay of Huesken 2005
run_parameters: siRNA
Oligonucleotides are given in HELM: sugar(base)linkage, 5' to 3'; d 2'-deoxyribose, r ribose, m 2'-O-methylribose, p phosphate. ss, as = sense and antisense strand
# label = rule met if normalised inhibition (eCFP-eYFP dual reporter) >= 70% else rule not met

Recorded results for 5 substances are shown here.
RNA1{r(C)p.r(A)p.r(A)p.r(G)p.r(A)p.r(A)p.r(U)p.r(U)p.r(U)p.r(A)p.r(U)p.r(C)p.r(A)p.r(U)p.r(C)p.r(C)p.r(A)p.r(A)p.r(A)p.d(T)p.d(T)}|RNA2{r(U)p.r(U)p.r(U)p.r(G)p.r(G)p.r(A)p.r(U)p.r(G)p.r(A)p.r(U)p.r(A)p.r(A)p.r(A)p.r(U)p.r(U)p.r(C)p.r(U)p.r(U)p.r(G)p.d(T)p.d(T)}$$$RNA1{StrandType:ss}|RNA2{StrandType:as}$ = rule met
RNA1{r(A)p.r(U)p.r(C)p.r(C)p.r(A)p.r(A)p.r(A)p.r(C)p.r(C)p.r(C)p.r(A)p.r(G)p.r(A)p.r(U)p.r(G)p.r(A)p.r(C)p.r(C)p.r(C)p.d(T)p.d(T)}|RNA2{r(G)p.r(G)p.r(G)p.r(U)p.r(C)p.r(A)p.r(U)p.r(C)p.r(U)p.r(G)p.r(G)p.r(G)p.r(U)p.r(U)p.r(U)p.r(G)p.r(G)p.r(A)p.r(U)p.d(C)p.d(A)}$$$RNA1{StrandType:ss}|RNA2{StrandType:as}$ = rule not met
RNA1{r(A)p.r(U)p.r(U)p.r(U)p.r(A)p.r(C)p.r(A)p.r(A)p.r(C)p.r(A)p.r(A)p.r(G)p.r(A)p.r(A)p.r(U)p.r(U)p.r(U)p.r(A)p.r(U)p.d(T)p.d(T)}|RNA2{r(A)p.r(U)p.r(A)p.r(A)p.r(A)p.r(U)p.r(U)p.r(C)p.r(U)p.r(U)p.r(G)p.r(U)p.r(U)p.r(G)p.r(U)p.r(A)p.r(A)p.r(A)p.r(U)p.d(G)p.d(C)}$$$RNA1{StrandType:ss}|RNA2{StrandType:as}$ = rule met
RNA1{r(A)p.r(C)p.r(U)p.r(A)p.r(C)p.r(C)p.r(C)p.r(C)p.r(U)p.r(U)p.r(C)p.r(A)p.r(A)p.r(A)p.r(C)p.r(C)p.r(A)p.r(C)p.r(C)p.d(T)p.d(T)}|RNA2{r(G)p.r(G)p.r(U)p.r(G)p.r(G)p.r(U)p.r(U)p.r(U)p.r(G)p.r(A)p.r(A)p.r(G)p.r(G)p.r(G)p.r(G)p.r(U)p.r(A)p.r(G)p.r(U)p.d(C)p.d(T)}$$$RNA1{StrandType:ss}|RNA2{StrandType:as}$ = rule not met
RNA1{r(C)p.r(C)p.r(U)p.r(A)p.r(G)p.r(U)p.r(G)p.r(C)p.r(C)p.r(A)p.r(G)p.r(A)p.r(G)p.r(A)p.r(U)p.r(U)p.r(G)p.r(C)p.r(A)p.d(T)p.d(T)}|RNA2{r(U)p.r(G)p.r(C)p.r(A)p.r(A)p.r(U)p.r(C)p.r(U)p.r(C)p.r(U)p.r(G)p.r(G)p.r(C)p.r(A)p.r(C)p.r(U)p.r(A)p.r(G)p.r(G)p.d(G)p.d(G)}$$$RNA1{StrandType:ss}|RNA2{StrandType:as}$ = rule met

Ask: Does the substance RNA1{r(G)p.r(A)p.r(U)p.r(G)p.r(A)p.r(U)p.r(A)p.r(U)p.r(G)p.r(U)p.r(U)p.r(U)p.r(C)p.r(A)p.r(U)p.r(U)p.r(G)p.r(G)p.r(C)p.d(T)p.d(T)}|RNA2{r(G)p.r(C)p.r(C)p.r(A)p.r(A)p.r(U)p.r(G)p.r(A)p.r(A)p.r(A)p.r(C)p.r(A)p.r(U)p.r(A)p.r(U)p.r(C)p.r(A)p.r(U)p.r(C)p.d(C)p.d(C)}$$$RNA1{StrandType:ss}|RNA2{StrandType:as}$ have recorded normalised inhibition (eCFP-eYFP dual reporter) that is 70% or more?
Result: rule not met

Ask: Does the substance RNA1{r(A)p.r(G)p.r(C)p.r(A)p.r(U)p.r(U)p.r(U)p.r(G)p.r(U)p.r(C)p.r(U)p.r(C)p.r(G)p.r(A)p.r(U)p.r(A)p.r(U)p.r(U)p.r(C)p.d(T)p.d(T)}|RNA2{r(G)p.r(A)p.r(A)p.r(U)p.r(A)p.r(U)p.r(C)p.r(G)p.r(A)p.r(G)p.r(A)p.r(C)p.r(A)p.r(A)p.r(A)p.r(U)p.r(G)p.r(C)p.r(U)p.d(G)p.d(C)}$$$RNA1{StrandType:ss}|RNA2{StrandType:as}$ have recorded normalised inhibition (eCFP-eYFP dual reporter) that is 70% or more?
Result: rule met

Ask: Does the substance RNA1{r(C)p.r(A)p.r(G)p.r(C)p.r(A)p.r(U)p.r(U)p.r(U)p.r(G)p.r(U)p.r(C)p.r(U)p.r(C)p.r(G)p.r(A)p.r(U)p.r(A)p.r(U)p.r(U)p.d(T)p.d(T)}|RNA2{r(A)p.r(A)p.r(U)p.r(A)p.r(U)p.r(C)p.r(G)p.r(A)p.r(G)p.r(A)p.r(C)p.r(A)p.r(A)p.r(A)p.r(U)p.r(G)p.r(C)p.r(U)p.r(G)p.d(C)p.d(C)}$$$RNA1{StrandType:ss}|RNA2{StrandType:as}$ have recorded normalised inhibition (eCFP-eYFP dual reporter) that is 70% or more?
Result: rule met

Ask: Does the substance RNA1{r(U)p.r(C)p.r(U)p.r(G)p.r(C)p.r(A)p.r(G)p.r(G)p.r(U)p.r(C)p.r(C)p.r(A)p.r(G)p.r(U)p.r(U)p.r(G)p.r(G)p.r(G)p.r(G)p.d(T)p.d(T)}|RNA2{r(C)p.r(C)p.r(C)p.r(C)p.r(A)p.r(A)p.r(C)p.r(U)p.r(G)p.r(G)p.r(A)p.r(C)p.r(C)p.r(U)p.r(G)p.r(C)p.r(A)p.r(G)p.r(A)p.d(A)p.d(C)}$$$RNA1{StrandType:ss}|RNA2{StrandType:as}$ have recorded normalised inhibition (eCFP-eYFP dual reporter) that is 70% or more?
Result: rule not met

Ask: Does the substance RNA1{r(G)p.r(A)p.r(U)p.r(U)p.r(G)p.r(C)p.r(A)p.r(C)p.r(G)p.r(G)p.r(A)p.r(U)p.r(C)p.r(U)p.r(A)p.r(U)p.r(A)p.r(A)p.r(A)p.d(T)p.d(T)}|RNA2{r(U)p.r(U)p.r(U)p.r(A)p.r(U)p.r(A)p.r(G)p.r(A)p.r(U)p.r(C)p.r(C)p.r(G)p.r(U)p.r(G)p.r(C)p.r(A)p.r(A)p.r(U)p.r(C)p.d(T)p.d(C)}$$$RNA1{StrandType:ss}|RNA2{StrandType:as}$ have recorded normalised inhibition (eCFP-eYFP dual reporter) that is 70% or more?
Result: rule met

---

target_entity: NOG
experimental_details: reporter assay of Huesken 2005
run_parameters: siRNA
Oligonucleotides are written 5' to 3', each unit as a sugar letter and its base; * is a phosphorothioate linkage, no mark a phosphodiester; rarer units and linkages stand in square brackets, end groups in braces. Plain capitals give the bases only. d = 2'-deoxy (DNA); r = 2'-OH (RNA)
Kindly supply the reported normalised inhibition (eCFP-eYFP dual reporter) values for the records listed here.

Solved entries:
sense rGrArUrCrArArArGrGrGrCrUrArGrArGrUrUrCdTdT / antisense rGrArArCrUrCrUrArGrCrCrCrUrUrUrGrArUrCdTdC = 78.3%
sense rGrGrCrArArGrArArGrCrArGrCrGrCrCrUrArAdTdT / antisense rUrUrArGrGrCrGrCrUrGrCrUrUrCrUrUrGrCrCdCdT = 91.3%

// next item, normalised inhibition (eCFP-eYFP dual reporter) requested
Ask: Answer with the recorded normalised inhibition (eCFP-eYFP dual reporter) for the substance listed here: sense rUrCrGrCrArGrArCrArUrUrCrUrGrCrCrCrCrGdTdT / antisense rCrGrGrGrGrCrArGrArArUrGrUrCrUrGrCrGrAdCdC
Result: 47.6%

---

target_entity: Cacnb1 (rat)
experimental_details: reporter assay of Huesken 2005
run_parameters: siRNA
Oligonucleotides are given in HELM: sugar(base)linkage, 5' to 3'; d 2'-deoxyribose, r ribose, m 2'-O-methylribose, p phosphate. ss, as = sense and antisense strand
Kindly supply the reported normalised inhibition (eCFP-eYFP dual reporter) values for the records listed here.
One number for each entry, in %.

Solved entries:
RNA1{r(G)p.r(U)p.r(G)p.r(C)p.r(G)p.r(G)p.r(A)p.r(G)p.r(G)p.r(G)p.r(U)p.r(G)p.r(G)p.r(U)p.r(G)p.r(G)p.r(G)p.r(C)p.r(C)p.d(T)p.d(T)}|RNA2{r(G)p.r(G)p.r(C)p.r(C)p.r(C)p.r(A)p.r(C)p.r(C)p.r(A)p.r(C)p.r(C)p.r(C)p.r(U)p.r(C)p.r(C)p.r(G)p.r(C)p.r(A)p.r(C)p.d(A)p.d(G)}$$$RNA1{StrandType:ss}|RNA2{StrandType:as}$ = 52.4
RNA1{r(U)p.r(C)p.r(G)p.r(G)p.r(G)p.r(A)p.r(G)p.r(G)p.r(C)p.r(U)p.r(G)p.r(G)p.r(U)p.r(G)p.r(A)p.r(A)p.r(G)p.r(G)p.r(A)p.d(T)p.d(T)}|RNA2{r(U)p.r(C)p.r(C)p.r(U)p.r(U)p.r(C)p.r(A)p.r(C)p.r(C)p.r(A)p.r(G)p.r(C)p.r(C)p.r(U)p.r(C)p.r(C)p.r(C)p.r(G)p.r(A)p.d(T)p.d(C)}$$$RNA1{StrandType:ss}|RNA2{StrandType:as}$ = 73.7

// next item, normalised inhibition (eCFP-eYFP dual reporter) requested
Ask: Answer with the recorded normalised inhibition (eCFP-eYFP dual reporter) for the substance listed here: RNA1{r(U)p.r(A)p.r(C)p.r(A)p.r(C)p.r(G)p.r(G)p.r(A)p.r(G)p.r(C)p.r(C)p.r(A)p.r(G)p.r(G)p.r(A)p.r(G)p.r(A)p.r(C)p.r(U)p.d(T)p.d(T)}|RNA2{r(A)p.r(G)p.r(U)p.r(C)p.r(U)p.r(C)p.r(C)p.r(U)p.r(G)p.r(G)p.r(C)p.r(U)p.r(C)p.r(C)p.r(G)p.r(U)p.r(G)p.r(U)p.r(A)p.d(G)p.d(A)}$$$RNA1{StrandType:ss}|RNA2{StrandType:as}$
Result: 54.9

Measured values drawn from the OligoGym collection for this set.
